experiment: yeast display, Sf9 membrane polyspecificity reagent, FACS + sequencing; frameworks hold sequencing errors
READOUT: polyreactivity (PSR sort gate)

Study these solved cases before continuing.
ENTRY_SEQUENCE | REPORTED_VALUE
QVQLVESVRGLVQAGGSLRLSCAASGRIIYLNGMGSYRQAPGKERELVAAISSSDDSTYYAVSVKGRFTISRDNATNTVYLQLNSLKPEDTAVYYCAAGYHQVQNYGDAYYWSELYSWGQGTQVTVSS | low polyreactivity
QVQLVESGGGLVQAGGSLRLSCAASRSTFYIYVMGWYRQAPGKERELVAAISWSGGSTYYTDSVKGRFTISRDNAKNTVYLQMNSLNPEDTAVYYCNADAHWSVWSYIIDYDYWGEGTQVTVSS | low polyreactivity
QVQLVESGGGLVQAGGSLRLSCAASGRIFWSYDMGWYRQAPGKERELVASITSDGSTNYADSVKGRFTISRDNAKNTVYLQMNSLKPEDTAVYYCAARPYQYDPFAQGDGGKYDYWGQGTQVTVSS | low polyreactivity
QVQLVESGGGLVQAGGSLRLSCAASGRTFVSNAMGWYRQAPGKERELVARITGSGGTTYYADSVKGRFTISRDNAKNTVYLQMNSLKPEDTAVYYCNADVFRKFGSPSAYKSHRYDYWGQGTQVTVSS | low polyreactivity
QVQLVESGGGLVQAGGSLRLSCAASGRIFRINGMGWYRQAPGKEREFVAAITSGGGTYYADSVKGRFTISRDNAKNTVYLQMNSLKPEDTAVYYCAVRRRYGDDYWGQGTQVTVSS | high polyreactivity

query: Find the measured polyreactivity (PSR sort gate) of QVQLVESGGGLVQAGGSLRLSCAASGRTFYRNDMVWYRQSPGKERELVARITSGGSTNYADSVKGRFTISRDNAKNTVYLQMNSLKPEDTGVYYCAAVSRYYPYGYWGQGTQVTVSS and report it.
result: high polyreactivity

query: Find the measured polyreactivity (PSR sort gate) of QVQLVESGGGLVQAGGSLRLSFAASGSIFYYYVMGWYRQAPGKERELVASIRAGGDNTYYADSVKGRFTISRDSAKNTVYLQMNRLKPEDSEVYYCAKSRGRRRLYPHRYGHDYWGQGTQVTVSS and report it.
result: low polyreactivity

query: Find the measured polyreactivity (PSR sort gate) of QVQLVESGGGLVQAGGSLRLSCAASGSTFYYYAMGWYRQAPGKERELVAAINYNGGSTHYADSVKGRFTISRDNAKNTVYLQMISLKPEDTAVYYCAAKYRLSYTHGYWGQGSQVTVSS and report it.
result: low polyreactivity

query: Find the measured polyreactivity (PSR sort gate) of QVQLVESGGGLVQAGGSLRLSCAASGLTFFWNAMGWYRQAPGKERELVAAISYSGGSTSYADSVKGRFTISRDNAKNSVYLQMNSLKPEDTAVYYCAAEYWYGPSKGDYWGQGTQVTVSS and report it.
result: high polyreactivity

query: Find the measured polyreactivity (PSR sort gate) of QVQLVESGGGLVQAGGSLRLSCAASGRILGDYAMGWYRQAPGKEREFVAAIDYNGGSTNYADSVKGRFTISRDNAKNTVYLQMNSLKPEDTAVYYCAAPGFPSRNGFGYWGQGTQVTVSS and report it.
result: low polyreactivity

query: Find the measured polyreactivity (PSR sort gate) of QVQLVESGGGLVQAGGSLRLSCAASGRIFGYYAMGWYRQAPGKEMELVARITWSGGDTYYADSVKGRFTISRDNAKNTVYLQMNSLKPEDTAVYYCAADYLDSTYGYVYGWDDYWGQGTQVTVSS and report it.
result: low polyreactivity

Cited source: the nanobody polyreactivity screen of Harvey et al. (2022)
